# TESTED SYSTEM: T1, recombinant human Siglec-8 extracellular domain (ECD) (human, UniProt Q9NYZ4 17-363)
# T1 construct: extracellular domain; also called Siglec-8 ECD; full Siglec-8 ECD
# T1 sequence (Q9NYZ4 17-363): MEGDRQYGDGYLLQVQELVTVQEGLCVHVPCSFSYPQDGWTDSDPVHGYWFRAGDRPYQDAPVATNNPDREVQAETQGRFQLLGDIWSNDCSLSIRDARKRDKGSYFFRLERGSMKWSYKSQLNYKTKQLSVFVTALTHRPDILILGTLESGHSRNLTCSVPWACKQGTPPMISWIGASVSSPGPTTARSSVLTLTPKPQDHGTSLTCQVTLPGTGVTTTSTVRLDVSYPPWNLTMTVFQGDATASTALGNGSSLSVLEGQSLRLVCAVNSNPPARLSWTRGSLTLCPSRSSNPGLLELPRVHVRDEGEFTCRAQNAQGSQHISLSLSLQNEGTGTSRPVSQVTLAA
# ASSAY PROCEDURE: ELISA, coated Siglec-8 ECD
Below, each of the binders is paired with its reported EC50 value.
Your answer is read as nM, so omit the unit and give the number.

Prompt: Tell me measured EC50 for RHE Triple-KE (antibody, human IgG1, V domains shown, human IgG1/kappa) VH: EVQLVESGGGLVQPGGSLRLSCAASGFSLTIYGAHWVRQAPGKGLEWVGVIWAGGSTNYNSALMSRFTISKDNSKNTVYLQMNSLRAEDTAVYYCARDGSSPYYYGMDVWGQGTTVTVSS VL: EIVLTQSPATLSLSPGERATLSCSATSSVSYMHWFQQKPGQAPRLLIYSTSNLASGVPARFSGSGSGTDFTLTISSLEPEDFAVYYCQQRSSYPFTFGPGTKLDIK please.
Completion: 34.1

Let's switch to this binder now.
Prompt: Tell me measured EC50 for HFKE (antibody, human IgG1, V domains shown, human IgG1/kappa) VH: EVQLVESGGGLVQPGGSLRLSCAASGFSLTIYGAHWVRQAPGKGLEWVSVIWAGGSTNYNSALMSRLTISKDNSKNTVYLQMNSLRAEDTAVYYCARDGSSPYYYSMEYWGQGTTVTVSS VL: EIVLTQSPATLSLSPGERATLSCSATSSVSYMHWFQQKPGQAPRLLIYSTSNLASGVPARFSGSGSGTDFTLTISSLEPEDFAVYYCQQRSSYPFTFGPGTKLDIK please.
Completion: 0.104
